Listed below: IC50 values for each entry.
target: human ETB receptor (Homo sapiens); construct: expressed in transfected cells; host or cells: COS7 cells; assay: Binding Test #2: inhibition of 125I-ET-1 binding to ETB receptors (transfected COS7 cell membranes); conditions: Table 1; † incubation at 24° C.; read-out: ETB
Express it in µM; write the number only.

Previously resolved entries follow.
COc1ccc2c(S(=O)(=O)Nc3onc(C)c3Cl)c(Cc3ccc4c(c3)OCO4)sc2c1 | 2.39
Cc1noc(NS(=O)(=O)c2sccc2CCc2ccc3c(c2)OCO3)c1Br | 18

Prompt: Any idea what IC50 came out for `COc1ccc(-c2ccc(S(=O)(=O)Nc3onc(C)c3Br)s2)cc1` on human ETB receptor (Homo sapiens)?
Completion: 2.4

Prompt: Checklist item: IC50 tested on human ETB receptor (Homo sapiens), entry `Cc1noc(NS(=O)(=O)c2sccc2CC=Cc2cc3c(cc2CO)OCO3)c1Br` , value?
Completion: 3.24

* * *

molecular target: human ETB receptor (Homo sapiens); construct: expressed in transfected cells; host or cells: COS7 cells; test: Binding Test #2: inhibition of 125I-ET-1 binding to ETB receptors (transfected COS7 cell membranes); conditions: Table 1; incubation at 4° C.; read-out: ETB
pIC50: −log10 of the molar value.
The label depends only on pIC50: y if it is at least 6, n if it is smaller.

Example entries and their recorded answers appear below.
Cc1ccccc1-c1ccc(S(=O)(=O)Nc2onc(C)c2Br)s1 | y
Cc1noc(NS(=O)(=O)c2cc(Cl)sc2Cl)c1Br | n
Cc1noc(NS(=O)(=O)c2ccsc2NC(=O)Nc2sccc2S(=O)(=O)Nc2onc(C)c2C)c1C | n
Cc1noc(NS(=O)(=O)c2ccco2)c1Br | n
Cc1noc(NS(=O)(=O)c2ccc(-c3ccc(C(F)(F)F)cc3)s2)c1Br | y

Prompt: Hi, just wondering whether `Cc1cc(S(=O)(=O)Nc2onc(C)c2Br)c(C)s1` shows pIC50 of 6 or higher.
Completion: n

Prompt: Hi team, for `Cc1noc(NS(=O)(=O)c2ccn(-c3ccc(C(C)C)cc3)c2)c1Br` , is the recorded pIC50 at or above 6?
Completion: y

Prompt: Reported pIC50 reaches at least 6 for `Cc1noc(NS(=O)(=O)c2ccsc2C(=O)Nc2ccccc2)c1Br` ?
Completion: n

Prompt: Assess whether reported pIC50 for `Cc1ccsc1S(=O)(=O)Nc1onc(C)c1Br` sits at 6 or higher.
Completion: n

Prompt: Please indicate if the recorded pIC50 for `COC(=O)c1sccc1S(=O)(=O)Nc1onc(C)c1Br` meets or exceeds 6.
Completion: n

* * *

Target: human ETA receptors (Homo sapiens, UniProt P25101)
Construct: endogenous in cells; host or cells: TE 671 cells (ATCC HTB 139)
Sequence (P25101 21-427): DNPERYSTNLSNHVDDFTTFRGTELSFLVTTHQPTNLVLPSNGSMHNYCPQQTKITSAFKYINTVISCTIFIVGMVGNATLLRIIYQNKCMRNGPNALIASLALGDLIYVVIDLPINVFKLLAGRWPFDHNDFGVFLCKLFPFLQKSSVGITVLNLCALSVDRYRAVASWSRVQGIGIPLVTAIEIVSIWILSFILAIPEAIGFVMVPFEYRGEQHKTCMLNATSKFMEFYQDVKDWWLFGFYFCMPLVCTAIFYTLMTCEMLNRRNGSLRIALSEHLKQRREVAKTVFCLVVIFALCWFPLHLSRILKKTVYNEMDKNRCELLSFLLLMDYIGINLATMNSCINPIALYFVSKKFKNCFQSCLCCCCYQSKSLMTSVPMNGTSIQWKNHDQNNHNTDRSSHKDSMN
Assay: Binding Test #1: inhibition of 125I-ET-1 binding to ETA receptors (TE 671 cell membranes)
Conditions: Table 1; † incubation at 24° C.; read-out: ETA
From the text: Compounds that are potential endothelin antagonists are identified by testing their ability to compete with ^125I-labeled ET-1 for binding to human ETA receptors or ETB receptors present on isolated cell membranes. The effectiveness of the test compound as an antagonist or agonist of the biological tissue response of endothelin can also be assessed by measuring the effect on endothelin induced contraction of isolated rat thoracic aortic rings. […]
pIC50: −log10 of the molar value.
Note to self: class labels come from recorded pIC50, ranges listed here: bin A: < 6; bin B: ≥ 6 and < 8; bin C: ≥ 8

For orientation, consider the following solved cases.
CCc1sc2ccc(C)cc2c1S(=O)(=O)Nc1onc(C)c1Br | bin A
Cc1noc(NS(=O)(=O)c2ccsc2CC2(c3ccc4c(c3)OCO4)OCCO2)c1Cl | bin B
CC(=O)OCc1c(C)cc(C)c(NC(=O)c2sccc2S(=O)(=O)Nc2onc(C)c2Cl)c1C | bin C

Prompt: Using the reported pIC50, which band applies to `Cc1noc(NS(=O)(=O)c2ccsc2NC(=O)Nc2sccc2S(=O)(=O)Nc2onc(C)c2C)c1C` ?
Completion: bin A

Prompt: Record `Cc1ccc(/C=C/c2sccc2S(=O)(=O)Nc2onc(C)c2Br)cc1` — which class?
Completion: bin B

Prompt: In plain terms, what class is `COC(=O)c1ccc(-c2ccc(S(=O)(=O)Nc3onc(C)c3Br)s2)cc1` ?
Completion: bin A

Prompt: Where would `COc1cc(C#N)c(NC(=O)c2sccc2S(=O)(=O)Nc2onc(C)c2Cl)c(OC)c1OC` land among the classes by reported pIC50?
Completion: bin C

Prompt: Pick a category. Item: `Cc1noc(NS(=O)(=O)c2ccc(C#CC(C)(C)C)s2)c1Br`
Completion: bin A

Prompt: Form: Item = `Cc1ccc(C=CCc2sccc2S(=O)(=O)Nc2onc(C)c2Br)c(C)c1` ; Class = ?
Completion: bin B

* * *

Target: human ETB receptor (Homo sapiens)
Construct: expressed in transfected cells; host or cells: COS7 cells
Sequence (P24530 27-442): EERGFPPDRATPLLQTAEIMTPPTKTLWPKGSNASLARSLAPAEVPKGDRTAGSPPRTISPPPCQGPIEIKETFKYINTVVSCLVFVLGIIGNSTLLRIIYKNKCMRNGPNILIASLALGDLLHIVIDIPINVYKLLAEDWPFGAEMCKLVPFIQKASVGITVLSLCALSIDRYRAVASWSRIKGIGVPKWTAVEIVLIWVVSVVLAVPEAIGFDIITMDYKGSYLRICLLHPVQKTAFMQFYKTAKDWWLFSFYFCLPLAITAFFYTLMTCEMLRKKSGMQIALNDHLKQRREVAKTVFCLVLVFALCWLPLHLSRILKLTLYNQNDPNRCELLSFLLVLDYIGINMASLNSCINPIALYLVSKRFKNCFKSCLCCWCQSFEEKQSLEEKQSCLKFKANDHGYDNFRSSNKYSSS
Assay: Binding Test #2: inhibition of 125I-ET-1 binding to ETB receptors (transfected COS7 cell membranes)
Settings: Table 1; incubation at 4° C.; read-out: ETB
metric: pIC50
Please treat pIC50 as minus the base-10 logarithm of the molar concentration.

# example entries with known answers
COc1cccc(NC(=O)c2sccc2S(=O)(=O)Nc2onc(C)c2Br)c1 | 5.23
CCc1ccc(-c2ccc(S(=O)(=O)Nc3onc(C)c3Br)s2)cc1 | 7.07
Cc1noc(NS(=O)(=O)c2ccc(-c3ccccn3)s2)c1Br | 5.57
CCCCc1ccc(NC(=O)c2sccc2S(=O)(=O)Nc2onc(C)c2Br)cc1 | 5.55
Cc1noc(NS(=O)(=O)c2cccn2-c2ccc(-c3ccccc3)cc2)c1Br | 5.11

Prompt: Find the recorded pIC50 belonging to `Cc1noc(NS(=O)(=O)c2ccc(C#CC(C)(C)C)s2)c1Br` and report it.
Completion: 4.62

Prompt: Which value of pIC50 has been reported for `Cc1cc(NS(=O)(=O)c2ccc(-c3ccon3)s2)on1` in the records?
Completion: 5.17

Prompt: Quick one: pIC50 for `CCCc1ccc(-c2ccc(S(=O)(=O)Nc3onc(C)c3Br)s2)cc1` ?
Completion: 6.29

Prompt: Field request: pIC50 | item: `Cc1onc(NS(=O)(=O)c2cccs2)c1Br`
Completion: 4.56

Prompt: Entry `Cc1noc(NS(=O)(=O)c2cc(-c3ccccc3)cs2)c1Br` : reported pIC50 = ?
Completion: 5.93

* * *

molecular target: human ETA receptors (Homo sapiens, UniProt P25101); construct: endogenous in cells; host or cells: TE 671 cells (ATCC HTB 139); experiment: Binding Test #1: inhibition of 125I-ET-1 binding to ETA receptors (TE 671 cell membranes); conditions: Table 1; incubation at 4° C.; read-out: ETA
The reader will find reported pIC50 values listed item by item below.
Kindly note that pIC50 refers to -log10 of the concentration in mol/L and answer with the value alone.

These solved cases illustrate the format of a correct answer.
Cc1noc(NS(=O)(=O)c2ccc(-c3cccs3)s2)c1Br | 5.29
Cc1noc(NS(=O)(=O)c2ccco2)c1C | 5.50
Cc1noc(NS(=O)(=O)c2ccc(-c3ccccc3)o2)c1Br | 6.07

Please find the next compound below.
Prompt: Provide the documented pIC50 with human ETA receptors (Homo sapiens, UniProt P25101) as the system for `Cc1noc(NS(=O)(=O)c2ccc(-c3cc(C(F)(F)F)cc(C(F)(F)F)c3)s2)c1Br`
Completion: 6.10
